Tested on: MS2 coat protein
Assay: apparent KD of MS2 coat protein; designed switch direction (-1 OFF switch, 1 ON switch): -1; higher = weaker reporter binding
Conditions: Eterna round: R95; input ligand: microRNA oligo, concentration not stated
metric: apparent KD of MS2 coat protein (nM)
Express it in nM; write the number only.

Here are 6 sequences together with their reported answers.
>  <monomer_sequence>
CCGAGCAGACGGAGAUCCAACAUGAGGAUCACCCAUGUCUCAAAAGCUUUUUGCUCGUCUUAUCCUCCUCUGUUCUC [Legedi] (puzzle: Sensor v3, turn-off variant 1)

>  <apparent KD of MS2 coat protein / nM>
200

$$$$
>  <monomer_sequence>
AAAAGGUCAGGAUAUCGGCGCGGUUGGGAGGCAGGUCCGCGCGAGAAGGGACAUGAGGAUCACCCAUGUUAAAA [Excls4-III] (puzzle: Exclusion 4)

>  <apparent KD of MS2 coat protein / nM>
20.7

$$$$
>  <monomer_sequence>
CGUGACUCAGGAUAUCUAUUAUGUCACAUGAGGAUCACCCAUGUCCAGCGAAAGCUGGAGGGAGAAGGGAGUCACG [Fiskers Ex 5 - 45] (puzzle: Exclusion 5)

>  <apparent KD of MS2 coat protein / nM>
118

$$$$
>  <monomer_sequence>
CUGGUCCGAGGAUAUAUUAUGUGAUACAUGAGGAUCACCCAUGUUAUAUGAUGGAUAUAAAUAGAAGGCGGACUAG [Mat - Exclusion 5 - JL mod - D66] (puzzle: Exclusion 5)

>  <apparent KD of MS2 coat protein / nM>
42.4

$$$$
>  <monomer_sequence>
GGUUGUUGUUUCCGUUCUUACAUGAGGAUCACCCAUGUUUCUUGUCGUGCUCGCGUUGCUCGUCUGGCUGCCUGUUG [salish99_TOv1_r3_070] (puzzle: Sensor v3, turn-off variant 1)

>  <apparent KD of MS2 coat protein / nM>
37.4

$$$$
>  <monomer_sequence>
AGAAGUAGAAACCGAUCCUACAUGAGGAUCACCCAUGUAGCAAGACGUGCACGCGAAGCUCGUCAGACUACCAGAAC [salish99_TOv1_r3_008] (puzzle: Sensor v3, turn-off variant 1)

>  <apparent KD of MS2 coat protein / nM>
264

$$$$

Qu. Give apparent KD of MS2 coat protein for GGUUGGCGAGGAUAUACAUGAGGAUCACCCAUGUGAGAGAAAAAAGUGAGGCAGAAAAGUAGAAGGCGCUGACG [salish99_ex3_r3_031] (puzzle: Exclusion 3)
Ans. 29.8

Qu. Return apparent KD of MS2 coat protein for the following sequence: CUUAGACAUGAGGAUCACCCAUGUGAGGAUAUGAUGCAGCAGUGGUCUACGCUGUGCAUCAGAAGGCACAUGUG (puzzle: Exclusion 1)
Ans. 62.4

Qu. Using known records, supply apparent KD of MS2 coat protein for UCGGCGCGAGGAUAUGCGGUUUGUGCUUUGGGCCCUGGCGUACAUGAGGAUCACCCAUGUAGAAGGCGUGUUGC [Apr-15 SS2-49] (puzzle: Exclusion 2)
Ans. 17.9

Qu. Supply recorded apparent KD of MS2 coat protein for ACAAGCUUUUUGUUCGUCUUAUAAUAAUAAAUAAAGAUAACAUGAGGAUCACCCAUGUAAAGAAGACGGCCUCAUGU [Sesor Array 20 - Jieux - Sensor v3, turn-off variant 2] (puzzle: Sensor v3, turn-off variant 2) here.
Ans. 233

Qu. Consider the sequence GGGAUGUGAGGAUAUCGAGGUGGAAAGCACCUAACAGAAAACGAGAAGGCACAUGAGGAUCACCCAUGUAAUAC [Ditete] (puzzle: Exclusion 4) and give its recorded apparent KD of MS2 coat protein.
Ans. 19.5

Qu. Indicate its recorded apparent KD of MS2 coat protein; the sequence in question is GCAUCCAAAGUGAGGAUAUACCUCUGGAUACAGAGGUAGAAGGCACAUGAGGAUCACCCAUGUUACUAGGAUGC [Fiskers BMX 4 - 35] (puzzle: Brourd's mod of Exclusion 4)
Ans. 13.2

Qu. Please report the measured apparent KD of MS2 coat protein for GUGUAGAUAGGAUAUGCAUGAGUCUAGCGAAGCUAGGCUCUACAUGAGGAUCACCCAUGUAGAAGGGUCUACAC [Dot plot directed A v13] (puzzle: Exclusion 2)
Ans. 18.6
